Recorded values, source patent US7994209B2.

- measured_target: hNET (Homo sapiens)
- Sequence (P23975 whole entry): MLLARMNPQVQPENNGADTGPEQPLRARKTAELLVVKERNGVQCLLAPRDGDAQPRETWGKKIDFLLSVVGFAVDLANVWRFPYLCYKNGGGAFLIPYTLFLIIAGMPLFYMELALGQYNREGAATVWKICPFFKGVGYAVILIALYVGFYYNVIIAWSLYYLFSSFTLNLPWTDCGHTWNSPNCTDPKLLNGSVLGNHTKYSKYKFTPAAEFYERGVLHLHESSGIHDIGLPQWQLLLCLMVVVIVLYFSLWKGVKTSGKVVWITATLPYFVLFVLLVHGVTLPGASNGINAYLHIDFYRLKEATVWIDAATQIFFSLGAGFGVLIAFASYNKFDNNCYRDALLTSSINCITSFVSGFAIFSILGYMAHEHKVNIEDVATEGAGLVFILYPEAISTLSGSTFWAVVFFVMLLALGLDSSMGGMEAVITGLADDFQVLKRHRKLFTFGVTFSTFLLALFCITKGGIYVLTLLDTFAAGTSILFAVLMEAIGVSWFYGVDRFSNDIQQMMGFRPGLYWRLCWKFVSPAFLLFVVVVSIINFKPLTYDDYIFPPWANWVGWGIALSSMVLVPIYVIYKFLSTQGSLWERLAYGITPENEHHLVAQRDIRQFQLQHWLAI
- assay_protocol: hNET membrane radioligand binding assay (3H-nisoxetine), Assay 1
Hi there, I'd appreciate the recorded Ki for every entry that follows.

(Q) Can you share its Ki? I mean this compound: CC[C@H](Oc1ccc(Cl)cc1C)[C@@H]1CCNC1 [Example 2-61]
(A) ≤ 100 nM

(Q) Continue with CC(C)C[C@@H](Oc1cccc(Cl)c1Cl)[C@H]1CCNC1 [Example 10-23]
(A) ≤ 10 nM

(Q) Continue with CCC[C@@H](Oc1cccc(Cl)c1C(F)(F)F)[C@H]1CCNC1 [Example 4-69]
(A) ≤ 100 nM

(Q) Continue with CC(C)C(Oc1cccc(F)c1Cl)C1CCNC1 (stereo not shown) [Example 6-18]
(A) ≤ 10 nM

(Q) Continue with CC(C)[C@@H](Oc1cccc(Cl)c1Cl)[C@@H]1CCNC1 [Example 6-15]
(A) ≤ 10 nM

(Q) Continue with CC(C)C[C@H](Oc1cccc(Cl)c1C(F)(F)F)[C@H]1CCNC1 [Example 10-36]
(A) ≤ 10 nM

(Q) Continue with CC(C)C[C@H](Oc1ccc(Cl)cc1Cl)[C@H]1CCNC1 [Example 10-42]
(A) ≤ 10 nM

(Q) Continue with CCc1cc(F)ccc1O[C@H](C1CC1)[C@H]1CCNC1 [Example 16-33]
(A) ≤ 10 nM

(Q) Continue with Clc1ccc(O[C@H](C2CC2)[C@H]2CCNC2)cc1 [Example 16-102]
(A) ≤ 100 nM

(Q) Continue with CSc1cccc(O[C@@H](C2CC2)[C@H]2CCNC2)c1 [Example 16-86]
(A) ≤ 10 nM

###

- measured_target: hNET (Homo sapiens)
- assay_protocol: fluorescence-based norepinephrine reuptake inhibition assay (Tsuruda et al. 2010; data indicated by an asterisk)
- Type: cell-based
- Design: expressed in transfected cells; host or cells: HEK-293
- particulars: norepinephrine reuptake inhibition, fluorescence-based assay (values with asterisk); read-out: NET pIC50 (converted)
recorded_endpoint: IC50

(Q) Can you share its IC50? I mean this molecule: Cc1cc(O[C@@H](C2CC2)[C@H]2CCNC2)ccc1Cl [Example 16-94]
(A) ≤ 0.01 µM

(Q) Continue with CCC[C@H](Oc1cccc(C)c1C)[C@H]1CCNC1 [Example 4-62]
(A) ≤ 0.01 µM

(Q) Continue with CCC[C@@H](Oc1ccc(Cl)c(F)c1)[C@H]1CCNC1 [Example 4-17]
(A) ≤ 0.1 µM

(Q) Continue with Fc1ccc(OC(C2CCCC2)C2CCNC2)cc1 (stereo not drawn) [Example 18-12]
(A) ≤ 0.1 µM

(Q) Continue with CCC[C@@H](Oc1ccc(Cl)c(Cl)c1)[C@@H]1CCNC1 [Example 4-14]
(A) ≤ 0.1 µM

(Q) Continue with CC(C)[C@H](Oc1c(Cl)cccc1Cl)[C@H]1CCNC1 [Example 6-28]
(A) ≤ 0.01 µM

(Q) Continue with CC[C@H](Oc1ccc(C)c(F)c1F)[C@H]1CCNC1 [Example 2-51]
(A) ≤ 0.01 µM

(Q) Continue with CC(C)C[C@H](Oc1cccc2ccccc12)[C@H]1CCNC1 [Example 14-8]
(A) ≤ 0.01 µM

(Q) Continue with COc1c(O[C@H](C2CC2)[C@H]2CCNC2)ccc(Cl)c1Cl [Example 16-56]
(A) ≤ 0.316 µM

(Q) Continue with COc1cc(Cl)c(F)cc1O[C@@H](C1CC1)[C@H]1CCNC1 [Example 16-74]
(A) ≤ 0.01 µM

(Q) Continue with CC(C)[C@@H](Oc1cccc(Cl)c1F)[C@H]1CCNC1 [Example 6-4]
(A) ≤ 0.01 µM

(Q) Continue with Cc1cc(O[C@@H](C2CC2)[C@H]2CCNC2)cc(C)c1Cl [Example 16-101]
(A) ≤ 0.1 µM

(Q) Continue with CCC[C@@H](Oc1ccc(Cl)c(C)c1)[C@H]1CCNC1 [Example 4-15]
(A) ≤ 0.1 µM

(Q) Continue with Clc1cccc(O[C@H](C2CC2)[C@H]2CCNC2)c1 [Example 16-85]
(A) ≤ 0.01 µM

(Q) Continue with CC[C@H](Oc1cc(Cl)cc(OC)c1)[C@H]1CCNC1 [Example 2-20]
(A) ≤ 0.1 µM

(Q) Continue with CCC[C@@H](Oc1ccc(Cl)c(Cl)c1F)[C@H]1CCNC1 [Example 4-51]
(A) ≤ 0.01 µM

(Q) Continue with CC(C)C[C@@H](Oc1cccc(Cl)c1C(F)(F)F)[C@H]1CCNC1 [Example 10-34]
(A) ≤ 0.1 µM

(Q) Continue with CC[C@@H](Oc1ccc(Cl)c(Cl)c1)[C@H]1CCNC1 [Example 2-8]
(A) ≤ 0.1 µM

(Q) Continue with COc1cc(Cl)ccc1O[C@H](C(C)C)[C@@H]1CCNC1 [Example 6-48]
(A) ≤ 0.1 µM

(Q) Continue with CCC[C@@H](Oc1cc(Cl)cc(Cl)c1)[C@@H]1CCNC1 [Example 4-9]
(A) ≤ 0.01 µM

(Q) Continue with c1ccc2c(O[C@@H](C3CC3)[C@H]3CCNC3)cccc2c1 [Example 22]
(A) ≤ 0.01 µM

(Q) Continue with CC(C)C[C@H](Oc1cc(Cl)ccc1Cl)[C@H]1CCNC1 [Example 10-51]
(A) ≤ 0.01 µM

(Q) Continue with CC(C)[C@H](Oc1ccc(Cl)cc1C(F)(F)F)[C@H]1CCNC1 [Example 6-51]
(A) ≤ 0.01 µM

(Q) Continue with CC(C)[C@@H](Oc1cc(F)cc(Cl)c1)[C@H]1CCNC1 [Example 6-60]
(A) ≤ 0.01 µM

(Q) Continue with Fc1c(Cl)ccc(O[C@@H](C2CC2)[C@H]2CCNC2)c1Cl [Example 16-52]
(A) ≤ 0.01 µM

(Q) Continue with Fc1c(Cl)ccc(O[C@H](C2CC2)[C@H]2CCNC2)c1F [Example 16-49]
(A) ≤ 0.01 µM

(Q) Continue with Fc1cc(Cl)cc(F)c1O[C@H](C1CC1)[C@H]1CCNC1 [Example 16-80]
(A) ≤ 0.01 µM

(Q) Continue with CC(C)C[C@@H](Oc1ccc(Cl)c(F)c1)[C@H]1CCNC1 [Example 10-71]
(A) ≤ 0.01 µM

(Q) Continue with CC(C)[C@H](Oc1ccc(C(F)(F)F)cc1Cl)[C@H]1CCNC1 [Example 6-25]
(A) ≤ 0.1 µM

(Q) Continue with Clc1cccc(O[C@@H](C2CC2)[C@H]2CCNC2)c1 [Example 16-84]
(A) ≤ 0.01 µM

###

- measured_target: hNET (Homo sapiens)
- assay_protocol: fluorescence-based norepinephrine reuptake inhibition assay (Tsuruda et al. 2010; data indicated by an asterisk)
- Type: cell-based
- Design: expressed in transfected cells; host or cells: HEK-293
- particulars: norepinephrine reuptake inhibition, fluorescence-based assay (values with asterisk); read-out: NET pIC50 (converted)
recorded_endpoint: IC50

(Q) # value lookup — system hNET (Homo sapiens), readout IC50, item CC[C@H](Oc1cccc(Cl)c1C)[C@H]1CCNC1 [Example 2-64]
(A) ≤ 10 nM

(Q) Continue with Cc1cc(O[C@H](C2CC2)[C@H]2CCNC2)ccc1Cl [Example 16-95]
(A) ≤ 100 nM

(Q) Continue with CC(C)[C@H](Oc1cc(F)cc(Cl)c1)[C@H]1CCNC1 [Example 6-59]
(A) ≤ 10 nM

(Q) Continue with CC(C)[C@H](Oc1cccc(F)c1Cl)[C@@H]1CCNC1 [Example 6-20]
(A) ≤ 100 nM

(Q) Continue with CC(C)[C@H](Oc1cccc(Cl)c1Cl)[C@@H]1CCNC1 [Example 6-16]
(A) ≤ 100 nM

###

- measured_target: hNET (Homo sapiens)
- assay_protocol: fluorescence-based norepinephrine reuptake inhibition assay (Tsuruda et al. 2010; data indicated by an asterisk)
- Assay type: cell-based
- Design: expressed in transfected cells; host or cells: HEK-293
- particulars: norepinephrine reuptake inhibition, fluorescence-based assay (values with asterisk); read-out: NET pIC50 (converted)
Hi there, I'd appreciate the recorded IC50 for every entry that follows.

(Q) # value lookup — system hNET (Homo sapiens), readout IC50, item "Clc1ccccc1O[C@H](C1CC1)[C@H]1CCNC1"
(A) ≤ 10 nM

(Q) Continue with "Cc1cc(O[C@@H](C2CC2)[C@H]2CCNC2)c(Cl)cc1Cl"
(A) ≤ 100 nM

(Q) Continue with "CCC[C@@H](Oc1cccc(Cl)c1F)[C@@H]1CCNC1"
(A) ≤ 10 nM

###

- measured_target: hNET (Homo sapiens)
pKi: −log10 of the molar value.
recorded_endpoint: pKi

(Q) Can you share its pKi? I mean this compound: "CC[C@H](Oc1ccc(F)c(F)c1F)[C@H]1CCNC1"
(A) ≥ 7.00

(Q) Continue with "CC[C@H](Oc1ccccc1F)[C@H]1CCNC1"
(A) ≥ 8.00

(Q) Continue with "Fc1ccc(Cl)c(Cl)c1O[C@H](C1CC1)[C@H]1CCNC1"
(A) ≥ 8.00

(Q) Continue with "Cc1cc(O[C@@H](C2CC2)[C@H]2CCNC2)c(Cl)cc1Cl"
(A) ≥ 7.00
